- Test system: MS2 coat protein
- ASSAY_METHOD_TEXT: apparent KD of MS2 coat protein; higher = weaker reporter binding
- DETAILS: Eterna round: R107; input ligand: tryptophan 2.4 mM
QUANTITY: apparent KD of MS2 coat protein (nM)
Please respond with the number in nM and leave the unit unwritten.

# ENTRY_SEQUENCE, apparent KD of MS2 coat protein [nM]
records = [
    ("GUCUGUGUCUGAAGGAGCGACAUGAGGAUCACCCAUGUCUCCCGUUAUGGGAGUUCCUUAGGUCAGGUAGGUCGCAGACACAGAC [#1 Exclusion - Arginine B Attempt #27 (Inspired by Omei)]", 107),
    ("GGAUGAAACUGAAGGAGCGAGAUCACAAGAAUGGGUCAAACAUGAGGAUCACCCAUGUAAUCUCAGGUAGGUCGCAGUGUCCCUU [Exclusion Arginine B GF 11]", 46.2),
]

Lab note: measured apparent KD of MS2 coat protein of GGGUGGUAGGCGGCCGCCACUGAUUUUCAUUUAUAGAUGACAUGAGGAUCACCCAUGUUUAUGUGCAGGACCGGGCCUGUUGUGG [aaaS] was 77.6

Lab note: measured apparent KD of MS2 coat protein of CUAUAAAUAUGAAGGAGCGUCGAAAAUGGGUAAACAUGAGGAUCACCCAUGUAAAGGGAACGACAGGUAGGUCGCAUAUUUAUAG [AstromonsSSArgB#11] was 219

Lab note: measured apparent KD of MS2 coat protein of AAAAUCCUACUUGAGGAUCACCCAGGUGAAGGAGCGCCCGAAAGGGCAGGUAGGUCGCACCUGAGGAUCACCCUGGUAAACCUAA [ArgEX 8 #DoubleMS2 #OpenEnded] was 152

Lab note: measured apparent KD of MS2 coat protein of GCGAUGGAGCGAAGGAGCGGCUAAAUGUAUCACAUGAGGAUCACCCAUGUUCCAGGAUGUGGCCAGGUAGGUCGCGCUCCAUCGC [SSAB NP+V+V2 #16] was 288
